B1: HMOX1 (parent)
chain: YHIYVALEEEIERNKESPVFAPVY

- Variants of: B1
- run description: protein stability index of a GFP-peptide fusion (GPS, HEK-293T) (PSI 1-6); higher = more stable;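 further: lentivirally expressed fusions sorted by FACS into six bins by GFP to DsRed ratio, PSI derived from sequencing read proportions per bin multiplied by bin number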
- measurement context: c terminus: a fixed tail appended
Hi there, I'd appreciate the recorded protein stability index for every entry that follows.

Q: What measured protein stability index goes with YHIYVALEEERERNKESPVFAPVY [I11R] ?
A: 1.56

Q: Next: YHIYVALEEEIERNKESPVFAPIY [V23I]
A: 1.87

Q: Next: YHIYVALEEEIERIKESPVFAPVY [N14I]
A: 1.26

Q: Next: YHIYVALEEEIERNKESPVFAPVE [Y24E]
A: 3.33

Q: Next: YHIYVALEEEIERNKESPVFAPVF [Y24F]
A: 1.78

Q: Next: YHKYVALEEEIERNKESPVFAPVY [I3K]
A: 1.91

Q: Next: YHIYVALEEEIERNKESPVFANVY [P22N]
A: 1.68

Q: Next: YHIYVALEEEIERNKEQPVFAPVY [S17Q]
A: 1.57

Q: Next: YHIYVALEEEIERNKESHVFAPVY [P18H]
A: 2.23

Q: Next: YHIYVALEEEIERNKETPVFAPVY [S17T]
A: 1.69

Q: Next: YHIYVALFEEIERNKESPVFAPVY [E8F]
A: 2.43

Q: Next: HHIYVALEEEIERNKESPVFAPVY [Y1H]
A: 2.5

Q: Next: YHIYVALEREIERNKESPVFAPVY [E9R]
A: 2.02

Q: Next: YHIYVALEEEIERNKESPVFAPFY [V23F]
A: 1.78

Q: Next: YHIYVALEEEIERNKESPVPAPVY [F20P]
A: 2.82

Q: Next: YHIYVRLEEEIERNKESPVFAPVY [A6R]
A: 1.7

Q: Next: YHIYVALEEEIERNVESPVFAPVY [K15V]
A: 1.83

Q: Next: YHIYVALEEEIEMNKESPVFAPVY [R13M]
A: 1.4

Q: Next: YHIYVALEEEIERNKESPVEAPVY [F20E]
A: 2.52

Q: Next: YHIYVALEEEIERNKESKVFAPVY [P18K]
A: 2.03

Q: Next: YHIYVALEEEIERNPESPVFAPVY [K15P]
A: 1.53

Q: Next: PHIYVALEEEIERNKESPVFAPVY [Y1P]
A: 2.46
